test: Cytotoxicity against human HeLa cells expressing CD4 assessed as cell viability after 6 days by XTT assay; type: cell-based
ATTRIBUTE_MEASURED: CC50 at 144 h

[in] Sample COc1ncc(OC)c2c(C(=O)C(=O)N3CCN(C(=O)c4ccccc4)CC3)c[nH]c12 — what was its CC50 at 144 h?
[out] > 300 µM

[in] Same thing, different molecule: CN(C)CCNC(=O)c1ccc(F)c2c(C(=O)C(=O)N3CCN(C(=O)c4ccccc4)CC3)c[nH]c12
[out] > 300 µM

[in] Same thing, different molecule: CC(=O)N1CC(NC(=O)c2ccc(F)c3c(C(=O)C(=O)N4CCN(C(=O)c5ccccc5)CC4)c[nH]c23)C1
[out] > 300 µM

[in] Same thing, different molecule: CONC(=O)c1ccc(F)c2c(C(=O)C(=O)N3CCN(C(=O)c4ccccc4)CC3)c[nH]c12
[out] > 300 µM

The measured values listed here are drawn from ChEMBL document CHEMBL2311358.
